// data source = patent US9814704B2

Would you mind telling me the reported IC50 of each entry?
- EXPERIMENTAL TARGET: MLK3 (Homo sapiens (Human), UniProt Q16584)
- Sequence (Q16584 whole entry): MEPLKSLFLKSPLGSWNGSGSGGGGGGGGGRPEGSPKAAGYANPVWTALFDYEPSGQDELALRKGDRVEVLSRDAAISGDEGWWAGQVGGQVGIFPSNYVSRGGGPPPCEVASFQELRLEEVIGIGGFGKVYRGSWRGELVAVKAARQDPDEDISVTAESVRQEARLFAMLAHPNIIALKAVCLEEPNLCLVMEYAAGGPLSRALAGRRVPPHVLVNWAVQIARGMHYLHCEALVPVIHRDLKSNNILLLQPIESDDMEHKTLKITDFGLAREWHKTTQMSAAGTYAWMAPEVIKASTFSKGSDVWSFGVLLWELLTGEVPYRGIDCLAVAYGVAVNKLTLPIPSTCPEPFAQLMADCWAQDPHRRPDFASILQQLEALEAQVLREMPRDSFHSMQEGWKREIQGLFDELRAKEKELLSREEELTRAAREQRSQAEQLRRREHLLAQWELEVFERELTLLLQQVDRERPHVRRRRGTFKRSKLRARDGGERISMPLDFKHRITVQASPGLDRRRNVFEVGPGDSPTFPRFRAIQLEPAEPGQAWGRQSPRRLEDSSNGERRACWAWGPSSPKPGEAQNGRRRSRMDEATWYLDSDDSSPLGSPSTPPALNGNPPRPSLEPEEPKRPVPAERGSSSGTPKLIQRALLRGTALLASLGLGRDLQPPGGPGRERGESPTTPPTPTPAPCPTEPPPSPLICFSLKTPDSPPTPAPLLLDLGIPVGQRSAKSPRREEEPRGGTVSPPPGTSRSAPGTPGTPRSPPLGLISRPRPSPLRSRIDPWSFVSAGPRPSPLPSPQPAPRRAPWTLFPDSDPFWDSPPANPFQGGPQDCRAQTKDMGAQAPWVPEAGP
- EXPERIMENT NOTES: Radiometric Filter Plate MLK3 Assay
- Format: biochemical
- CONDITION DESCRIPTION: 200 ng (130 nM) MLK3, 1 μM inactive MKK7b, 2 μM cold ATP (Km), 33P ATP, twenty minute incubation; read-out: MK3 IC50
Counter-ions that a name gives are not always drawn.

[Q] I would be grateful if you could share the reported IC50 for "CN(C)Cc1ccc(-c2cnc3[nH]cc(-c4ccc5[nH]ccc5c4)c3c2)cc1" .
[A] < 100 nM

[Q] What would you report for "Cc1cc2cc(-n3c(=O)[nH]c4ncc(-c5ccncc5)nc43)ccc2[nH]1" ?
[A] > 1000 nM

[Q] What would you report for "COc1ccc(-n2c(=O)[nH]c3ncc(-c4ccc(O)cc4)nc32)cc1" ?
[A] > 1000 nM

[Q] What would you report for "COc1cc(-c2cnc3c(c2)C(=Cc2cccc(C#N)c2)C(=O)N3)cc(OC)c1OC" ?
[A] > 1000 nM

[Q] What would you report for "COc1cc(-c2cnc3[nH]cc(-c4ccc(N)cc4)c3c2)cc(OC)c1OC" ?
[A] < 100 nM

[Q] What would you report for "COc1cc(-c2cnc3[nH]c(=O)n(-c4ccc5cc[nH]c5c4)c3n2)cc(OC)c1OC" ?
[A] < 100 nM

[Q] What would you report for "CC(C)(C)OC(=O)N1CCN(C(=O)c2cccc(-c3cnc4[nH]cc(-c5ccc(C(N)=O)cc5)c4c3)c2)CC1" ?
[A] < 100 nM

[Q] What would you report for "CN1CCN(Cc2cccc(-c3cnc4[nH]cc(-c5ccc(C(N)=O)cc5)c4c3)c2)CC1" ?
[A] < 100 nM

[Q] What would you report for "COc1ccc(-c2cnc3[nH]cc(-c4ccc(C(N)=O)cc4)c3c2)cc1OC" ?
[A] < 100 nM

[Q] What would you report for "O=c1[nH]c2ncc(-c3ccncc3)nc2n1-c1ccc2scnc2c1" ?
[A] > 1000 nM

[Q] What would you report for "CN1CCN(Cc2ccc(-c3c[nH]c4ncc(-c5ccc6[nH]ccc6c5)cc34)cc2)CC1" ?
[A] > 1000 nM

[Q] What would you report for NC(=O)c1ccc(-c2c[nH]c3ncc(-c4ccc(C(=O)N5CCNCC5)cc4)cc23)cc1 [Example 149, hydrochloride salt] ?
[A] < 100 nM

[Q] What would you report for "Nc1ccc(-c2cnc3[nH]cc(-c4ccc5[nH]ccc5c4)c3c2)cc1" ?
[A] < 100 nM

[Q] What would you report for "CN1CCN(Cc2ccc(-c3c[nH]c4ncc(-c5ccc(C(N)=O)cc5)cc34)cc2)CC1" ?
[A] < 100 nM

[Q] What would you report for "Nc1ccc(-c2cnc3[nH]cc(-c4ccc(F)c(Cl)c4)c3c2)cn1" ?
[A] > 1000 nM

[Q] What would you report for "O=c1[nH]c2ncc(-c3ccc(N4CCOCC4)cc3)nc2n1-c1ccc2[nH]ncc2c1" ?
[A] > 1000 nM

[Q] What would you report for "CN1CCN(Cc2ccc(-c3cnc4[nH]cc(-c5ccc6[nH]ccc6c5)c4c3)cc2)CC1=O" ?
[A] < 100 nM

[Q] What would you report for "O=c1[nH]c2ncc(-c3ccc(O)cc3)nc2n1CC1CC1" ?
[A] > 1000 nM

[Q] What would you report for "COc1cc(-c2cnc3[nH]cc(-c4ccc(C(N)=O)cc4)c3c2)cc(OC)c1OC" ?
[A] < 100 nM

[Q] What would you report for "O=c1[nH]c2ncc(-c3ccc(N4CCOCC4)cc3)nc2n1-c1ccc2scnc2c1" ?
[A] > 1000 nM

[Q] What would you report for "COc1cc(-c2cnc3[nH]cc(-c4ccc5c(ccn5C)c4)c3c2)cc(OC)c1OC" ?
[A] < 100 nM

[Q] What would you report for "COc1cc(-c2cnc3[nH]cc(-c4cnc(N)nc4)c3c2)cc(OC)c1OC" ?
[A] < 100 nM

[Q] What would you report for "O=C1CN(Cc2ccc(-c3cnc4[nH]cc(-c5ccc6[nH]ccc6c5)c4c3)cc2)CCN1" ?
[A] < 100 nM

[Q] What would you report for "O=c1[nH]c2ncc(-c3cc(F)c(O)c(F)c3)nc2n1-c1ccc2[nH]ccc2c1" ?
[A] < 100 nM

[Q] What would you report for "COc1cc(-c2cnc3[nH]c(=O)n(CC4CC4)c3c2)cc(OC)c1OC" ?
[A] > 1000 nM

[Q] What would you report for "O=c1[nH]c2ncc(-c3ccc(O)cc3)nc2n1-c1ccc2cn[nH]c2c1" ?
[A] > 1000 nM

[Q] What would you report for "CC(=O)N1CCN(Cc2ccc(-c3cnc4[nH]cc(-c5ccc(C(N)=O)cc5)c4c3)cc2)CC1" ?
[A] < 100 nM

[Q] What would you report for "CN1CCN(Cc2cccc(-c3cnc4[nH]cc(-c5ccc6[nH]ccc6c5)c4c3)c2)CC1=O" ?
[A] < 100 nM

====

- EXPERIMENTAL TARGET: MLK3 (Homo sapiens (Human), UniProt Q16584)
- EXPERIMENT NOTES: Radiometric Filter Plate MLK3 Assay
- Assay type: biochemical
- CONDITION DESCRIPTION: 200 ng (130 nM) MLK3, 1 μM inactive MKK7b, 2 μM cold ATP (Km), 33P ATP, twenty minute incubation; read-out: MK3 IC50
Would you mind telling me the reported IC50 of each entry?

[Q] I would be grateful if you could share the reported IC50 for "COc1cc(-c2cnc3c(c2)C(=Cc2ccc(C#N)cc2)C(=O)N3)cc(OC)c1OC" .
[A] > 1000 nM

[Q] What would you report for "Nc1ncc(-c2cnc3[nH]cc(-c4ccc5[nH]ccc5c4)c3c2)cn1" ?
[A] < 100 nM

[Q] What would you report for COc1cc(-c2cnc3[nH]c(=O)n(C4CCc5ccccc54)c3n2)cc(OC)c1OC (centres unmarked) ?
[A] > 1000 nM

[Q] What would you report for "CN1CCN(Cc2ccc(-c3cnc4[nH]cc(-c5ccc(C(N)=O)cc5)c4c3)cc2)CC1=O" ?
[A] < 100 nM

[Q] What would you report for "COc1cc(-c2cnc3[nH]cc(-c4ccc(NC(C)=O)cc4)c3c2)cc(OC)c1OC" ?
[A] < 100 nM

[Q] What would you report for "COc1cc(-c2cnc3[nH]cc(-c4ccc(CNC(C)=O)cc4)c3c2)cc(OC)c1OC" ?
[A] < 100 nM

[Q] What would you report for "COc1cc(-c2cnc3[nH]c(=O)n(-c4ccc5[nH]ccc5c4)c3n2)cc(OC)c1OC" ?
[A] < 100 nM

[Q] What would you report for "COc1cc(-c2cnc3c(c2)C(=Cc2cccc(C(N)=O)c2)C(=O)N3)cc(OC)c1OC" ?
[A] > 1000 nM

====

Would you mind telling me the reported IC50 of each entry?
- EXPERIMENTAL TARGET: MLK3 (Homo sapiens (Human), UniProt Q16584)
- EXPERIMENT NOTES: Radiometric Filter Plate MLK3 Assay
- Type: biochemical
- CONDITION DESCRIPTION: 200 ng (130 nM) MLK3, 1 μM inactive MKK7b, 2 μM cold ATP (Km), 33P ATP, twenty minute incubation; read-out: MK3 IC50

[Q] I would be grateful if you could share the reported IC50 for "O=c1[nH]c2ncc(-c3ccncc3)nc2n1CC1CC1" .
[A] > 1000 nM

[Q] What would you report for "Nc1ccc(-c2cnc3[nH]cc(-c4ccc5[nH]ccc5c4)c3c2)cn1" ?
[A] < 100 nM

[Q] What would you report for "Cc1cc(C)cc(-c2cnc3[nH]c(=O)n(-c4ccc5cn[nH]c5c4)c3n2)c1" ?
[A] > 1000 nM

[Q] What would you report for COc1cc(-c2cnc3c(c2)C(Cc2cccnc2)C(=O)N3)cc(OC)c1OC (centres unmarked) ?
[A] > 1000 nM

[Q] What would you report for "COc1cc(-c2cnc3[nH]c(=O)n(C4CCCC4)c3n2)cc(OC)c1OC" ?
[A] < 100 nM

[Q] What would you report for "O=c1[nH]c2ncc(-c3cc(Cl)cc(Cl)c3)nc2n1-c1ccc2[nH]ccc2c1" ?
[A] > 1000 nM

[Q] What would you report for "CS(=O)(=O)Nc1ccc(-c2cnc3[nH]cc(-c4ccc5[nH]ccc5c4)c3c2)cc1" ?
[A] < 100 nM

[Q] What would you report for "CN1CCN(c2cc(-c3cnc4[nH]c(=O)n(-c5ccc6[nH]ccc6c5)c4n3)ccn2)CC1" ?
[A] > 1000 nM

[Q] What would you report for "O=c1[nH]c2ncc(-c3ccncc3)nc2n1C1CCCC1" ?
[A] > 1000 nM

[Q] What would you report for "COc1cc(-c2nc3c(nc2Cl)[nH]c(=O)n3CC2CC2)cc(OC)c1OC" ?
[A] > 1000 nM

[Q] What would you report for "COc1cc(-c2cnc3[nH]c(=O)n(-c4cnc5[nH]ccc5c4)c3n2)cc(OC)c1OC" ?
[A] < 100 nM

[Q] What would you report for "O=c1[nH]c2ncc(-c3ccncc3)nc2n1-c1ccc2[nH]ccc2c1" ?
[A] > 1000 nM

[Q] What would you report for COc1cc(-c2cnc3c(c2)C(Cc2ccc(C(N)=O)cc2)C(=O)N3)cc(OC)c1OC (centres unmarked) ?
[A] > 1000 nM

[Q] What would you report for "COc1cc(-c2cnc3[nH]cc(-c4ccc5[nH]ccc5c4)c3c2)ccc1N" ?
[A] < 100 nM

[Q] What would you report for "CNC(=O)c1ccc(-c2c[nH]c3ncc(-c4ccc(CN5CCN(C)CC5)cc4)cc23)cc1" ?
[A] < 100 nM

[Q] What would you report for "COc1cc(-c2cnc3[nH]c(=O)n(-c4ccc5[nH]cnc5c4)c3n2)cc(OC)c1OC" ?
[A] < 100 nM

[Q] What would you report for COc1cc(-c2cnc3c(c2)C(Cc2ccccc2)C(=O)N3)cc(OC)c1OC (centres unmarked) ?
[A] > 1000 nM
